Molecular target: hM4 mAChR (Homo sapiens, UniProt P08173)
Sequence (P08173 whole entry): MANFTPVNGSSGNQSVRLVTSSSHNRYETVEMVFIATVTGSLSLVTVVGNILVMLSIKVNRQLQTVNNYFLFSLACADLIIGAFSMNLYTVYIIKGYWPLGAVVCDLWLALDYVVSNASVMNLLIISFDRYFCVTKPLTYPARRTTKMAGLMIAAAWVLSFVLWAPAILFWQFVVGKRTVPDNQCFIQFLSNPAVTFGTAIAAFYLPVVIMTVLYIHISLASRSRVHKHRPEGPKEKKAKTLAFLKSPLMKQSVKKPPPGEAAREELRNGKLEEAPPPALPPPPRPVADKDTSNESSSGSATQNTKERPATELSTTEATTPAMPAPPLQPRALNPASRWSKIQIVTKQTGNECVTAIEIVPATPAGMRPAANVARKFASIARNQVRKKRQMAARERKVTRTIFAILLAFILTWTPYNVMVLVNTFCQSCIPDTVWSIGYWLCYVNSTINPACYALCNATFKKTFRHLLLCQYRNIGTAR
Experiment: [35S]-GTPγS binding assay with ACh, operational model of allosterism
Type: biochemical
Settings: hM4 membranes, mean ± SEM
value kind: Logτ (logarithm of the operational efficacy parameter of M4-PAMs as allosteric agonists)

INSERT INTO assay_data (entry_smiles, experimental_system, experimental_value) VALUES
  ('Cc1ccc(-c2cnn(CC3CCCC3)c2)c(-c2ccc3c(c2)C(=O)NC3)n1', 'hM4 mAChR (Homo sapiens, UniProt P08173)', 0.5),
  ('N#Cc1ccc(-c2cnn(CC3CCCC3)c2)c(-c2ccc3c(c2)C(=O)N(CCF)C3)n1', 'hM4 mAChR (Homo sapiens, UniProt P08173)', 0.5),
  ('N#Cc1ccc(-c2cnn(CC3CCCC3)c2)c(-c2ccc3c(c2)C(=O)N(CCCF)C3)n1', 'hM4 mAChR (Homo sapiens, UniProt P08173)', 0.6);

1 = Cc1ccc(-c2cnn(CC3CCCC3)c2)c(-c2ccc3c(c2)C(=O)N(C)C3)n1
2 = CN1Cc2ccc(-c3nc(C#N)ccc3-c3cnn(CC4CCCC4)c3)cc2C1=O
Given 1 and 2 , report the one with the higher recorded Logτ (logarithm of the operational efficacy parameter of M4-PAMs as allosteric agonists). Lab note: record the label of whichever item you select. 1

###

Target: hM4 mAChR (Homo sapiens, UniProt P08173)
Assay: [35S]-GTPγS binding assay with ACh, operational model of allosterism
Format: biochemical
Conditions: determined by subtracting (α) from the (αβ) parameters, mean ± SEM
value kind: LogβACh (logarithm of the activation cooperativity factors between ACh and M4-PAMs)

Example results:
INSERT INTO measurements (entry_smiles, experimental_system, experimental_value) VALUES
  ('Cc1ccc(-c2cnn(CC3CCCC3)c2)c(-c2ccc3c(c2)C(=O)NC3)n1', 'hM4 mAChR (Homo sapiens, UniProt P08173)', 0.5),
  ('Cc1ccc(-c2cnn(CC3CCCC3)c2)c(-c2ccc3c(c2)C(=O)N(C)C3)n1', 'hM4 mAChR (Homo sapiens, UniProt P08173)', 0.4),
  ('N#Cc1ccc(-c2cnn(CC3CCCC3)c2)c(-c2ccc3c(c2)C(=O)N(CCCF)C3)n1', 'hM4 mAChR (Homo sapiens, UniProt P08173)', 0.8);

P = N#Cc1ccc(-c2cnn(CC3CCCC3)c2)c(-c2ccc3c(c2)C(=O)N(CCF)C3)n1
Q = CN1Cc2ccc(-c3nc(C#N)ccc3-c3cnn(CC4CCCC4)c3)cc2C1=O
Between the entries labeled P and Q , whose measured LogβACh (logarithm of the activation cooperativity factors between ACh and M4-PAMs) is lower? Give the label of your selection. Q
(Q: 0.1, P: 1.1)

###

Biological target: hM4 mAChR (Homo sapiens, UniProt P08173)
Assay type: binding
value kind: Kb (nM)

INSERT INTO measurements (entry_smiles, unit_of_measurement, experimental_value) VALUES
  ('N#Cc1ccc(-c2cnn(CC3CCCC3)c2)c(-c2ccc3c(c2)C(=O)N(CCCF)C3)n1', 'nM', 398),
  ('N#Cc1ccc(-c2cnn(CC3CCCC3)c2)c(-c2ccc3c(c2)C(=O)N(CCF)C3)n1', 'nM', 398),
  ('Cc1ccc(-c2cnn(CC3CCCC3)c2)c(-c2ccc3c(c2)C(=O)NC3)n1', 'nM', 501),
  ('Cc1ccc(-c2cnn(CC3CCCC3)c2)c(-c2ccc3c(c2)C(=O)N(C)C3)n1', 'nM', 316),
  ('CN1Cc2ccc(-c3nc(C#N)ccc3-c3cnn(CC4CCCC4)c3)cc2C1=O', 'nM', 398);
